- target entity: recombinant human TGR5 (Homo sapiens, UniProt Q8TDU6)
- Sequence (Q8TDU6 whole entry): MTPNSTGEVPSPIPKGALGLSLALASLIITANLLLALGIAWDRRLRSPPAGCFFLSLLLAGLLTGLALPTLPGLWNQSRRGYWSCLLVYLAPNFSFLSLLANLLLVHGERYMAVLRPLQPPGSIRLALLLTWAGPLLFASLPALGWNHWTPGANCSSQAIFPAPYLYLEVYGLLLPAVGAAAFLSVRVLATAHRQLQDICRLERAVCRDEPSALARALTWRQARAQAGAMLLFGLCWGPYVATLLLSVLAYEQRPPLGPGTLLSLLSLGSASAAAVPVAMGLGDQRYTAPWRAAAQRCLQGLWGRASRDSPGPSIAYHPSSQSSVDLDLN
- test: cAMP assay (cAMP accumulation, HTRF) in CHOK1 cells stably expressing TGR5
- condition notes: CHOK1 cells stably expressing human TGR5, 30 minutes at RT, 1% DMSO
pEC50: −log10 of the molar value. Structures can show the parent of a compound that is named as a salt.
Decision: pEC50 >= 7 yields MET, all other cases yield NOT MET.

{"molecule": "Cc1c(Cl)cccc1OCCCC(=O)N1C[C@@H]2C[C@@H]2c2c(-c3cnn(Cc4cccc(N5C(=O)[C@H](CCC[N+](C)(C)C)N(C)C5=O)c4)c3)cccc21 [Example 352, TFA salt]", "class label": "NOT MET"}
{"molecule": "Cc1cccc(NCCCC(=O)N2CCCc3c(-c4cnn(Cc5cccc(C(=O)O)c5)c4)cccc32)c1C [Example 934, TFA salt]", "class label": "NOT MET"}
{"molecule": "Cc1c(Cl)cccc1OCCCC(=O)N1CCCOc2c(-c3cnn(Cc4c(F)cc(C(=O)NCS(=O)(=O)O)cc4Cl)c3)cccc21 [Example 702]", "class label": "MET"}
{"molecule": "COC(=O)[C@@H](CCC(=O)O)NC(=O)c1ccc(Cl)c(Cn2cc(-c3cccc4c3[C@H]3C[C@H]3CN4C(=O)OCCOc3cccc(Cl)c3C)cn2)c1 [Example 672]", "class label": "MET"}
{"molecule": "Cc1cccc(OCCCC(=O)N2CCCc3c(-c4cn(Cc5cccc(C(=O)O)c5)nc4C)cccc32)c1C [Example 32G]", "class label": "NOT MET"}
{"molecule": "Cc1cccc(OCCCC(=O)N2CCOc3c(-c4cnn(Cc5cccc(C(=O)N[C@@H](CC(=O)O)C(=O)O)c5Cl)c4)cccc32)c1C [Example 624]", "class label": "NOT MET"}
{"molecule": "Cc1c(Cl)cccc1OCCCC(=O)N1CCSc2c(-c3cnn(Cc4cccc(C(=O)N[C@@H](CC[N+](C)(C)C)C(=O)O)c4)c3)cccc21 [Example 617, TFA salt]", "class label": "NOT MET"}
{"molecule": "Cc1cccc(OCCCC(=O)N2CCCc3c(-c4cnn(CC(=O)C(C)(C)CC(=O)O)c4)cccc32)c1C [Example 493]", "class label": "NOT MET"}
{"molecule": "Cc1c(Cl)cccc1OCCCC(=O)N1CCCOc2c(-c3cnn(Cc4c(F)cc(C(=O)NCCS(=O)(=O)O)cc4Cl)c3)cccc21 [Example 703]", "class label": "MET"}
{"molecule": "Cc1cccc(OCCCC(=O)N(C)c2cccc(-c3cnn(Cc4cccc(C(=O)NCCC(=O)O)c4)c3)c2)c1C [Example 552]", "class label": "NOT MET"}
{"molecule": "Cc1cccc(OCCCC(=O)N2C[C@@H]3C[C@@H]3c3c(-c4cnn(Cc5cccc(C(=O)NCCS(=O)(=O)O)c5)c4)cccc32)c1C (single isomer, unassigned) [Example 240]", "class label": "MET"}
{"molecule": "Cc1cccc(OCCCC(=O)N2CCCc3c(-c4cccc(COC(=O)N[C@@H](Cc5ccc(OP(=O)(O)O)cc5)C(=O)O)c4)cccc32)c1C [Example 324]", "class label": "NOT MET"}
{"molecule": "Cc1cccc(OCCCC(=O)N(C)c2cccc(-c3cnn(Cc4cccc(C(=O)O)c4)c3)c2)c1C [Example 339]", "class label": "NOT MET"}
